All figures here come from the supplement of paper PMC10307832.

# Tested on: NCI-H647
# PROTOCOL_DETAILS: relative viability (nuclei count vs DMSO), 5 days (fraction); higher = more cells survive
# SETUP_CONDITIONS: first compound 0.03162 µM
ASSAY_ENDPOINT: relative viability
Numbers only.

State the recorded relative viability for every item in the following list.
1. CC(C)Oc1cc(Nc2nc(N[C@@H](C)c3ccc(F)cn3)ncc2Cl)n[nH]1 [AZ23] + CCNC(=O)c1noc(-c2cc(C(C)C)c(O)cc2O)c1-c1ccc(CN2CCOCC2)cc1 [Luminespib] (partner 0.01 µM)
2. CC(C)Oc1cc(Nc2nc(N[C@@H](C)c3ccc(F)cn3)ncc2Cl)n[nH]1 [AZ23] + Cc1cc(Nc2cc(N3CCN(C)CC3)nc(Sc3ccc(NC(=O)C4CC4)cc3)n2)n[nH]1 [Tozasertib] (partner 0.1 µM)
3. CC(C)Oc1cc(Nc2nc(N[C@@H](C)c3ccc(F)cn3)ncc2Cl)n[nH]1 [AZ23] + C[C@@H](Oc1cc(-c2cnn(C3CCNCC3)c2)cnc1N)c1c(Cl)ccc(F)c1Cl [Crizotinib] (partner 1 µM)

// result
1. 0.107
2. 0.449
3. 1.37

State the recorded relative viability for every item in the following list.
1. CC(C)Oc1cc(Nc2nc(N[C@@H](C)c3ccc(F)cn3)ncc2Cl)n[nH]1 [AZ23] + CC(C)C[C@H](NC(=O)[C@H](Cc1ccccc1)NC(=O)c1cnccn1)B(O)O [Bortezomib] (partner 0.002 µM)
2. CC(C)Oc1cc(Nc2nc(N[C@@H](C)c3ccc(F)cn3)ncc2Cl)n[nH]1 [AZ23] + Nc1ncn([C@H]2C[C@H](O)[C@@H](CO)O2)c(=O)n1 [Decitabine] (partner 2 µM)

// result
1. 1.16
2. 0.415
